Reference source: PubChem BioAssay

Biological target: Neurogenic locus notch homolog protein 3 (Homo sapiens)
Test: NOTCH3 binders on small-molecule microarray, primary screen, biochemical, 635/667 nm fluorescence (AID 1096)
Details: NOTCH3 binding, 635 nm fluorescence, higher = more signal
Would you please tag the item 1 (yes) when its composite z-score is 0.5 or above, and 0 (no) when it is below?

| molecule | assayed target | label |
| --- | --- | --- |
| C=CCNC(=O)[C@H]1[C@@H]2C(=O)O[C@@H](c3ccccc3)[C@@H](c3ccccc3)N2[C@@H](c2ccc(O)cc2)[C@]12C(=O)N(C(=O)OCCOC)c1ccc(C#CCCO)cc12 | Neurogenic locus notch homolog protein 3 (Homo sapiens) | 0 (no) |
| CCCCC(O)C1C=CC2C(=O)N(C3CCCCC3)C(=O)C2N1Nc1ccc(OC)cc1 (configuration not stated) | Neurogenic locus notch homolog protein 3 (Homo sapiens) | 1 (yes) |
| COc1ccc(C(O)C2C=CC3C(=O)N(c4ccccc4)C(=O)C3N2Nc2ccc([N+](=O)[O-])cc2)cc1OCc1ccccc1 (configuration not stated) | Neurogenic locus notch homolog protein 3 (Homo sapiens) | 1 (yes) |
| CC(C)(C)N1CC=CC23O[C@@H]4C=CCOC(=O)[C@@H]4[C@H]2C(=O)N(CCCCCO)[C@@H]3C1=O (some centres not stated) | Neurogenic locus notch homolog protein 3 (Homo sapiens) | 0 (no) |
| COC(=O)[C@]1(Cc2ccccc2N=[N+]=[N-])N=C(c2ccc(OCCCO)cc2)O[C@@H]1c1ccccc1N=[N+]=[N-] | Neurogenic locus notch homolog protein 3 (Homo sapiens) | 0 (no) |
| C=CCC(OC(C)=O)[C@@H]1[C@@H](N(Cc2cccc3ccccc23)C(=O)c2cccc3ccccc23)c2cc(OCCCO)ccc2N1C(=O)c1ccc2ccccc2n1 (some centres not stated) | Neurogenic locus notch homolog protein 3 (Homo sapiens) | 0 (no) |
| CC(C)OC(=O)CC(=O)CC(O)c1ccc(C#N)cc1 (configuration not stated) | Neurogenic locus notch homolog protein 3 (Homo sapiens) | 0 (no) |
| O=C(O)[C@H]1C[C@H]2C(=O)NCC(=O)N2[C@H]1c1ccc(O)cc1 | Neurogenic locus notch homolog protein 3 (Homo sapiens) | 1 (yes) |
| C=CCNC(=O)[C@@H]1[C@H]2C(=O)O[C@H](c3ccccc3)[C@H](c3ccccc3)N2[C@H](c2ccc(OCCO)cc2)[C@@]12C(=O)Nc1ccccc12 | Neurogenic locus notch homolog protein 3 (Homo sapiens) | 1 (yes) |
| CCCCCN1CC=CC23O[C@@H]4/C=C\CCCOC(=O)C4[C@H]2C(=O)N(CCCCCCO)[C@@H]3C1=O (some centres not stated) | Neurogenic locus notch homolog protein 3 (Homo sapiens) | 0 (no) |
| COC(=O)[C@@]1(Cc2ccc(OC)cc2)[C@H]2c3cc(C(=O)N4CCCC4)n(CCc4c[nH]c5cc(F)ccc45)c3C[C@H]2CN1C(=O)c1ccccc1 | Neurogenic locus notch homolog protein 3 (Homo sapiens) | 1 (yes) |
| CCOC(=O)C1=CCC(c2ccc([N+](=O)[O-])cc2)N(S(=O)(=O)c2ccc(C)cc2)C1 (configuration not stated) | Neurogenic locus notch homolog protein 3 (Homo sapiens) | 0 (no) |
| C=CC[C@@]1(C(=O)O)N=C(c2ccc(OCCCO)cc2)O[C@@H]1c1ccccc1N=[N+]=[N-] | Neurogenic locus notch homolog protein 3 (Homo sapiens) | 0 (no) |
| O=C1O[C@H](c2ccccc2)[C@H](c2ccccc2)N2[C@H]1[C@@H](C(=O)O)[C@]1(C(=O)Nc3ccc(C#CC4(O)CCCCCC4)cc31)[C@H]2c1ccc(OCCO)cc1 | Neurogenic locus notch homolog protein 3 (Homo sapiens) | 1 (yes) |
| C=CCOC(=O)[C@H]1[C@@H]2C(=O)O[C@@H](c3ccccc3)[C@@H](c3ccccc3)N2[C@@H](c2ccc(OCCOC(=O)[C@@H]3C[C@@H]4C(=O)N5CCC[C@H]5C(=O)N4[C@@H]3c3ccc(O)cc3)cc2)[C@]12C(=O)Nc1ccccc12 | Neurogenic locus notch homolog protein 3 (Homo sapiens) | 1 (yes) |
| COc1cc2c(cc1OC)CN(C(=O)[C@@H]1[C@H]3C(=O)O[C@H](c4ccccc4)[C@H](c4ccccc4)N3[C@H](c3ccccc3OCCO)[C@@]13C(=O)Nc1ccc(C#CCNC(N)=O)cc13)CC2 | Neurogenic locus notch homolog protein 3 (Homo sapiens) | 1 (yes) |
| COC(=O)C[C@@H]1C[C@H](C)[C@]2(O1)C(=O)N(Cc1ccccc1)c1ccc(NC(C)=O)cc12 | Neurogenic locus notch homolog protein 3 (Homo sapiens) | 0 (no) |

====

Below: a set of entries, each annotated with reported composite z-score.
Target: Calmodulin-1 (Homo sapiens)
Experiment: CALM1 binders on microarrays, EGTA buffer, profiling panel, biochemical, small-molecule microarray, Cy5-labelled CALM1 (AID 1111);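 note: labelled calmodulin applied in Tris saline Tween buffer holding calcium plus EGTA and DTT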
Conditions: Cy5-CALM1 binding fluorescence, higher = more signal

| compound | assayed target | composite z-score |
| --- | --- | --- |
| CC(C)C[C@@H]1NC(=O)[C@H]2C[C@@H](C(=O)NCCCCCCNC(=O)CS)[C@@H](c3cccc(OCCO)c3)N2C1=O | Calmodulin-1 (Homo sapiens) | 0.83 |
| COCCOC(=O)N1C(=O)[C@@]2(c3cc(C#CC4=CCCCC4)ccc31)[C@H](C(=O)N1CCc3cc(OC)c(OC)cc3C1)[C@H]1C(=O)O[C@H](c3ccccc3)[C@H](c3ccccc3)N1[C@@H]2c1ccccc1OCCO | Calmodulin-1 (Homo sapiens) | 0.805 |
| COc1ccc([Si](C)(C)[C@@H]2[C@@H](CCn3cc([C@H](O)c4ccccc4)nn3)O[C@]3(C(=O)N(Cc4ccc(N5C(=O)c6cccc7cccc5c67)cc4)c4ccccc43)[C@H]2C)cc1 | Calmodulin-1 (Homo sapiens) | 0.273 |
| CC(C)(C)OC(=O)CC[C@@]1(C(=O)O)N=C(c2ccc(OCCCO)cc2)O[C@@H]1c1ccccc1N=[N+]=[N-] | Calmodulin-1 (Homo sapiens) | 1.64 |
| Cc1ccc(S[C@]2(C(=O)NCc3ccccc3)CC(=O)N(Cc3ccccc3)[C@@H]2c2ccc(CO)cc2)cc1 | Calmodulin-1 (Homo sapiens) | -0.344 |
| CC(C)C[C@@H]1NC(=O)[C@@H]2C[C@H](C(=O)NCCCCCC[N+](C)(C)C)[C@H](c3ccc(O)cc3)N2C1=O | Calmodulin-1 (Homo sapiens) | 0.669 |
| CC(C)C(=C=CC[C@H](O)c1cccc(OCCO)c1)C[C@H](O)COCc1ccccc1 | Calmodulin-1 (Homo sapiens) | -0.53 |
| C=C[C@H](COC(C)=O)N(Cc1ccc(OC(C)=O)c(OC)c1)S(=O)(=O)c1ccc(Br)cc1 | Calmodulin-1 (Homo sapiens) | 1.05 |
| C=CCNC(=O)[C@@H]1[C@H]2C(=O)O[C@H](c3ccccc3)[C@H](c3ccccc3)N2[C@H](c2ccc(O)cc2)[C@@]12C(=O)N(C(=O)OCCOC)c1ccccc12 | Calmodulin-1 (Homo sapiens) | 0.922 |
| COCCOC(=O)N1C(=O)[C@@]2(c3ccccc31)[C@H](c1ccc(O)cc1)N1[C@H](c3ccccc3)[C@H](c3ccccc3)OC(=O)[C@H]1[C@@H]2C(=O)N1CCc2cc(OC)c(OC)cc2C1 | Calmodulin-1 (Homo sapiens) | 0.889 |
| O=C1OCCC=C[C@H]2OC34C=CCN(Cc5ccccc5)C(=O)[C@H]3N(CCCCCO)C(=O)[C@@H]4C12 (some centres not stated) | Calmodulin-1 (Homo sapiens) | -0.565 |
| COCCOC(=O)N1C(=O)[C@@]2(c3cc(C#CCNC(N)=O)ccc31)[C@H](C(=O)N1CCN(c3ncccn3)CC1)[C@H]1C(=O)O[C@H](c3ccccc3)[C@H](c3ccccc3)N1[C@@H]2c1ccccc1OCCO | Calmodulin-1 (Homo sapiens) | 0.97 |
| Cc1ccc(S[C@]2(C(=O)NCc3ccccc3)CC(=O)N(Cc3ccccc3Cl)[C@@H]2c2ccc(CO)cc2I)cc1 | Calmodulin-1 (Homo sapiens) | -0.162 |
| C=CCC(OC(C)=O)[C@@H]1[C@@H](N(Cc2cccc3ccccc23)C(=O)c2cccc3ccccc23)c2cc(OCCCO)ccc2N1C(=O)c1ccc2ccccc2n1 (some centres not stated) | Calmodulin-1 (Homo sapiens) | -0.301 |
| COCCOC(=O)N1C(=O)[C@@]2(c3cc(C#CCCO)ccc31)[C@H](c1ccccc1OCCO)N1[C@H](c3ccccc3)[C@H](c3ccccc3)OC(=O)[C@H]1[C@@H]2C(=O)N1CCN(c2ncccn2)CC1 | Calmodulin-1 (Homo sapiens) | 1.33 |
| CC(C)NC(=O)[C@@H]1c2ccccc2C(=O)N(Cc2ccccc2Cl)[C@H]1c1ccc(CO)cc1 | Calmodulin-1 (Homo sapiens) | -0.0984 |
| COCCOC(=O)N1C(=O)[C@@]2(c3ccccc31)[C@H](C(=O)Nc1nc3ccccc3s1)[C@H]1C(=O)O[C@H](c3ccccc3)[C@H](c3ccccc3)N1[C@@H]2c1ccc(OCCO)cc1 | Calmodulin-1 (Homo sapiens) | 1.31 |
| [N-]=[N+]=NCc1ccccc1C[C@]1(C(=O)O)N=C(c2ccc(OCCCO)cc2)O[C@H]1c1ccccc1CN=[N+]=[N-] | Calmodulin-1 (Homo sapiens) | 1.74 |
| CCCCC=C[C@@H](NC(=O)c1cccs1)c1ccccc1 | Calmodulin-1 (Homo sapiens) | 0.524 |
| COCCCNC(=O)[C@@]1(c2ccc([N+](=O)[O-])cc2)CC(=O)N(CC23CC4CC(CC(C4)C2)C3)[C@@H]1c1ccc(CO)cc1 | Calmodulin-1 (Homo sapiens) | -0.121 |
| CN1C(=O)C2C(C1=O)C1C=C(CCCO)C2C(c2cccs2)N1C (configuration not stated) | Calmodulin-1 (Homo sapiens) | 0.203 |
| NC(=O)NCC#Cc1ccc2c(c1)[C@]1(C(=O)N2)[C@H](C(=O)N2CCCCCCC2)[C@H]2C(=O)O[C@H](c3ccccc3)[C@H](c3ccccc3)N2[C@@H]1c1ccc(OCCO)cc1 | Calmodulin-1 (Homo sapiens) | 1.99 |
